experimental_target: human JAK2 (Homo sapiens, UniProt O60674)
Sequence (O60674 whole entry): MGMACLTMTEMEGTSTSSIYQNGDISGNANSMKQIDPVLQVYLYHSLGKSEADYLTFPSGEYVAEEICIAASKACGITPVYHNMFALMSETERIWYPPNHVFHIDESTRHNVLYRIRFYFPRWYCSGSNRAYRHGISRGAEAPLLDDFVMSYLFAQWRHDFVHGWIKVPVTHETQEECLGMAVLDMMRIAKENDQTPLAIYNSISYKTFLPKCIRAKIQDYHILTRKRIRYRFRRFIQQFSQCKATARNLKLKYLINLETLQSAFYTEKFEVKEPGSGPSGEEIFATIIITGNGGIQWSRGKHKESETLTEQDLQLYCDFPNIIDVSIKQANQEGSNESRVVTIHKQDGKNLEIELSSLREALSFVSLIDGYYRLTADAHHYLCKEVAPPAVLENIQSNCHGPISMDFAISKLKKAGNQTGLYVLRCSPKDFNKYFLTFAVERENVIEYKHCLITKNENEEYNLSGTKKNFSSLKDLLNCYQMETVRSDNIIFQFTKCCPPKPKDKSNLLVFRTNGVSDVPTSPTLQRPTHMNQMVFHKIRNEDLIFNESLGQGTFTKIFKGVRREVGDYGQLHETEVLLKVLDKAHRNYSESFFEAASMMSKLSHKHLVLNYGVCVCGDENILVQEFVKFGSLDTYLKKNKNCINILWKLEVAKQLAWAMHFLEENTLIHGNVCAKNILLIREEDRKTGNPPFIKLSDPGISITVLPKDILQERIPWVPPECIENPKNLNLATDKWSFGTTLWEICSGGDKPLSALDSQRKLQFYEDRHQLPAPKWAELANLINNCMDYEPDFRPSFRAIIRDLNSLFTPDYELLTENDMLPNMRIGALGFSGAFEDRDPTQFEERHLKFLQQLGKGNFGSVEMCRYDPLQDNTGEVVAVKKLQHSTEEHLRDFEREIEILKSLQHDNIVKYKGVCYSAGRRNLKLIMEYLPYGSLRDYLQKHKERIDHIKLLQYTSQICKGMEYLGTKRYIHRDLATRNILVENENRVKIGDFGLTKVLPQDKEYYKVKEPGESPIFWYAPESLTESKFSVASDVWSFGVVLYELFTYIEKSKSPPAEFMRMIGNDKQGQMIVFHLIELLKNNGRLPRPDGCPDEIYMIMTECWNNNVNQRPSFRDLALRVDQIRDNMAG
method: Kinase panel screen, JAK2
Assay type: biochemical
protocol_conditions: kinase reaction with 10 or 100 μM ATP
parameter_measured: pIC50
Answers are plain numbers, as −log10 of the molar value.

I have this compound here, Oc1ccc(C=Cc2cc(O)cc(O)c2)cc1 [resveratrol, 3,5, 4′-trihydroxystilbene] , and I need its recorded pIC50. 5.83

====

experimental_target: human pim-2 (Homo sapiens, UniProt Q9P1W9)
Sequence (Q9P1W9 whole entry): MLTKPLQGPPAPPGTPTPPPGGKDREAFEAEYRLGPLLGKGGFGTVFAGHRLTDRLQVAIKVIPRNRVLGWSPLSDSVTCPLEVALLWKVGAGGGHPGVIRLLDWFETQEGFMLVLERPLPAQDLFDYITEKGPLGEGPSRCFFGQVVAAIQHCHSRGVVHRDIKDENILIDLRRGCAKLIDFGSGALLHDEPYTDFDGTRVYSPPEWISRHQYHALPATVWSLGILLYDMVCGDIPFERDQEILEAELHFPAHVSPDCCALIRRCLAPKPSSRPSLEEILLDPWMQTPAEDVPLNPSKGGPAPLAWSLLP
parameter_measured: IC50 (µM)
Numbers only, in µM.

Write down the reported IC50 of Oc1ccc(C=Cc2cc(O)cc(O)c2)cc1 [resveratrol, 3,5, 4′-trihydroxystilbene] , test system: human pim-2 (Homo sapiens, UniProt Q9P1W9). 1.49
